tgt: GSK3β (Homo sapiens, UniProt P49841)
Construct: His-tagged recombinant GSK3β from sf9 insect cells
Sequence (P49841 whole entry): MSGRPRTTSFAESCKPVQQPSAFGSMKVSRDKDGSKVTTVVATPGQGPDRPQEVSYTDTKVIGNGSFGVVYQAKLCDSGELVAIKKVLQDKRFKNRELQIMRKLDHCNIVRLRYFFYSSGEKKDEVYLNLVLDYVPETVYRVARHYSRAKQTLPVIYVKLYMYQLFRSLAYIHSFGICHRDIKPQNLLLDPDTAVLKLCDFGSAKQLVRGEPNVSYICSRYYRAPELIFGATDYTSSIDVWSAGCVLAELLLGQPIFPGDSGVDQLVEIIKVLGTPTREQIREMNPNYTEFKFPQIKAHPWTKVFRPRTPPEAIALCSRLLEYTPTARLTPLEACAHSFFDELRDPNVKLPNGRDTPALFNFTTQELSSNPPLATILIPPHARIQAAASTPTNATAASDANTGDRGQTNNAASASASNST
run_description: SPR (ProteOn XPR36, immobilized recombinant GSK3β); supported by competition with FITC-Axin peptide (AFF assay)
quantity_measured: Kd (µM)
Please reply with the bare figure in µM and do not write the unit itself.

Need Kd of O=C(Nc1ccc([N+](=O)[O-])cc1Cl)c1cc(Cl)ccc1O [Niclosamide] , thanks.
34.5
